B1: TNNI2 (parent)
chain: DWRKNIEEKSGMEGRKKMFESES

Variants of: B1
Assay: protein stability index of a GFP-peptide fusion (GPS, HEK-293T) (PSI 1-6); higher = more stable;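 note: lentivirally expressed fusions sorted by FACS into six bins by GFP to DsRed ratio, PSI derived from sequencing read proportions per bin multiplied by bin number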
Conditions: c terminus: native
Threshold check on protein stability index: at or above 3 gives YES, strictly below gives NO.

[
  {
    "sequence_content": "DWRKNIEEKSGREGRKKMFESES [M12R]",
    "qualitative_label": "NO"
  },
  {
    "sequence_content": "DWRKNIEEKSGMEGRKKMFVSES [E20V]",
    "qualitative_label": "NO"
  },
  {
    "sequence_content": "DWRVNIEEKSGMEGRKKMFESES [K4V]",
    "qualitative_label": "YES"
  },
  {
    "sequence_content": "DWRKNIEEKSGMEGRVKMFESES [K16V]",
    "qualitative_label": "NO"
  },
  {
    "sequence_content": "DWRKNICEKSGMEGRKKMFESES [E7C]",
    "qualitative_label": "NO"
  },
  {
    "sequence_content": "DWRKNREEKSGMEGRKKMFESES [I6R]",
    "qualitative_label": "NO"
  }
]
